target.or.system: T1, TNFR1 (Homo sapiens, UniProt P19438)
T1 chain: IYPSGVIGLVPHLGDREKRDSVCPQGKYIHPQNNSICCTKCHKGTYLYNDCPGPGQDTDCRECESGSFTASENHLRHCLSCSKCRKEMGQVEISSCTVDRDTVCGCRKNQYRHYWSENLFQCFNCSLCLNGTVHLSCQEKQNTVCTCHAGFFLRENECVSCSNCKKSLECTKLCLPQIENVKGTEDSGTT
test.method.notes: yeast display SC50
property.label: apparent Kd (screen) (nM)

binder	unit.spec	apparent Kd (screen)
E46P (designed binder) MTLQELLREEALRRAEAEAFRYALELLAEKFPEQKEYLLDLAEEIPSQIRSLSGVDVEDVRKFLDKEWAWVKELLAEHPAELAEVEAARAARLAELRAEVEAKVAA	nM	0.49

[A] E16C (designed binder) MTLQELLREEALRRACAEAFRYALELLAEKFPEQKEYLLDLAEEIESQIRSLSGVDVEDVRKFLDKEWAWVKELLAEHPAELAEVEAARAARLAELRAEVEAKVAA
[B] L52S (designed binder) MTLQELLREEALRRAEAEAFRYALELLAEKFPEQKEYLLDLAEEIESQIRSSSGVDVEDVRKFLDKEWAWVKELLAEHPAELAEVEAARAARLAELRAEVEAKVAA
Challenge: Lower value for measured apparent Kd (screen)? Options: A , B Pick one; state its label.
Response given: A
